Settings: in acetonitrile, 318.15 K
result-type: solubility (mole fraction)

Name the reported solubility (mole fraction) value associated with the compound O=C1NC23NC(=O)NC2(N1)C(=O)NC3=O (stereo unspecified)
6.79e-05

* * *

Details: in n-propanol, 273.15 K
result-type: solubility (mole fraction)
Answer as a number with no unit attached.

So what does the record say about solubility (mole fraction) for O=C1NC23NC(=O)NC2(N1)C(=O)NC3=O (stereo unspecified) ?
2.56e-05

* * *

Conditions: in acetone, 293.15 K
result-type: solubility (mole fraction)
Answer using only a numeral; do not append any unit.

Name the recorded solubility (mole fraction) for O=C1NC23NC(=O)NC2(N1)C(=O)NC3=O (stereo unspecified) .
0.000114
